Inhibition of IFN-gamma Release IC50; Donor 3: recorded values
- Measured On: T1, human CD48 (on primary human peripheral blood mononuclear cells) (human, UniProt P09326 27-220)
- T1 sequence: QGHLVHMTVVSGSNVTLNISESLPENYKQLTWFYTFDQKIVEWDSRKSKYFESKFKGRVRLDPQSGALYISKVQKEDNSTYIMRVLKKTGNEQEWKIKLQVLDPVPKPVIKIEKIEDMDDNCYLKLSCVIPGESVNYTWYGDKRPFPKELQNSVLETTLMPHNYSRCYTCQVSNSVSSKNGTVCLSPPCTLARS
- Protocol Text: cell-based or functional assay
Recorded Metric: Inhibition of IFN-gamma Release IC50; Donor 3

>  <Binder>
H2M1707N (antibody, V domains shown, Human variable domains, mouse IgG2 Fc (H2M)) VH: EGQLLESGGGLAQPGGSLRLSCAASGITFGRYAMSWVRQAPGKGLEWVSLISGSGGSTYHADSVKGRFTISRDNSKNTLYLQMNSLRAEDTAVYYCAIYNNYNWFDPWGQGTLVTVSS VL: EIVLTQSPGTLSLSPGERATLSCRASQSVSSNYLAWYQQKPGQAPRLLIYDASSRATDIPDRFSGSGSGTDFTLTISRLEPEDFAVYYCQQYGSSPRTFGQGTKVEIK

>  <Result>
1.1e-10 Molar

$$$$
>  <Binder>
H2M1811N (antibody, mouse IgG2, V domains shown, Human variable domains, mouse IgG2 Fc (H2M)) VH: QVQLVQSGAEAREPGASVRVSCKASGYTFTDYFIHWVRQAPGQGLEWMGWINPNSGATNFAQKFQGRVTMTRDTSLITAYMDLSRLKSDDAAVFYCARDVDGSGWYLDFWGQGTLVTVSS VL: EIVLTQSPATLSLSPGERATLSCRASQSVSIYLAWYQQKPGQAPRLLIYDASNRATGIPARFSGSGSGTDFTLTISRLEPEDFAVYYCQQRSDWPPSITFGQGTRLEIK

>  <Result>
8.3e-11 Molar

$$$$
>  <Binder>
H2M1763N (antibody, mouse IgG2, V domains shown, Human variable domains, mouse IgG2 Fc (H2M)) VH: QIQLVQSGAEMKRPGTSVKVSCKASGYTFTSYGINWVRQAPGQGLEWMGWISAYNGDTNYAQKLQGRVTMTTDTSTTTAYMEVRSLRSDDTAVYYCARFLTGTKDYYYGMDVWGQGTTVTVSS VL: DIQMTQSPSSLSASVGDRVTITCQASQDISNFLNWYQQKPGKAPDLLINDASILETGVPSRFSGSGSGTDFTLTINNLQPEDIATYYCQQYDNLPLTFGGGTKVEIK

>  <Result>
1.3e-10 Molar

$$$$
